The reported numbers originate from the supplement of paper PMC10567573.

B1: ZC3H15 (parent)
chain: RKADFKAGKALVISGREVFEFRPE

Variants of: B1
test.name: protein stability index of a GFP-peptide fusion (GPS, HEK-293T) (PSI 1-6); higher = more stable;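 note: lentivirally expressed fusions sorted by FACS into six bins by GFP to DsRed ratio, PSI derived from sequencing read proportions per bin multiplied by bin number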
settings: c terminus: a fixed tail appended
Form field: protein stability index (one value per entry).
Reply: number alone, nothing else.

[ask] For RKADFKAGKALVISGRYVFEFRPE [E17Y] , what is its reported protein stability index?
[reply] 2.19

Next:
[ask] For RKASFKAGKALVISGREVFEFRPE [D4S] , what is its reported protein stability index?
[reply] 2.55

[ask] For RKADFKAGKALVISGMEVFEFRPE [R16M] , what is its reported protein stability index?
[reply] 2.08

[ask] For RHADFKAGKALVISGREVFEFRPE [K2H] , what is its reported protein stability index?
[reply] 2.46

[ask] For RKADFKAGKALHISGREVFEFRPE [V12H] , what is its reported protein stability index?
[reply] 3.52

[ask] For RKADFKAGKALVISKREVFEFRPE [G15K] , what is its reported protein stability index?
[reply] 3.14

[ask] For RKAAFKAGKALVISGREVFEFRPE [D4A] , what is its reported protein stability index?
[reply] 2.36

[ask] For RYADFKAGKALVISGREVFEFRPE [K2Y] , what is its reported protein stability index?
[reply] 2

[ask] For RKADFKAGKALVISGREVFEKRPE [F21K] , what is its reported protein stability index?
[reply] 3.58

[ask] For RKADFKAGKALVISGREVFEVRPE [F21V] , what is its reported protein stability index?
[reply] 3.5

[ask] For RKADFKAGVALVISGREVFEFRPE [K9V] , what is its reported protein stability index?
[reply] 2.48

[ask] For RKADFKAGKALVIPGREVFEFRPE [S14P] , what is its reported protein stability index?
[reply] 3.44

[ask] For RKADFKAGKALVISGREVFMFRPE [E20M] , what is its reported protein stability index?
[reply] 2.27

[ask] For RKADFKAGMALVISGREVFEFRPE [K9M] , what is its reported protein stability index?
[reply] 2.31

[ask] For RLADFKAGKALVISGREVFEFRPE [K2L] , what is its reported protein stability index?
[reply] 1.76

[ask] For RKADFVAGKALVISGREVFEFRPE [K6V] , what is its reported protein stability index?
[reply] 3.03

[ask] For AKADFKAGKALVISGREVFEFRPE [R1A] , what is its reported protein stability index?
[reply] 3.21

[ask] For RKADFWAGKALVISGREVFEFRPE [K6W] , what is its reported protein stability index?
[reply] 2.4
